Consider the following compounds; for each one, report its pKi.
Schema: pKi number; meaning minus log10 of the concentration expressed in molar units.

Report pKi for CC[C@H](C)Cc1ccc2c(c1)OC(C)(C)[C@@H]1CC=C(C)C[C@@H]21 tested on human CB2 receptor (transfected human embryonic kidney 293 cells) (Homo sapiens).
Sequence (P34972 whole entry): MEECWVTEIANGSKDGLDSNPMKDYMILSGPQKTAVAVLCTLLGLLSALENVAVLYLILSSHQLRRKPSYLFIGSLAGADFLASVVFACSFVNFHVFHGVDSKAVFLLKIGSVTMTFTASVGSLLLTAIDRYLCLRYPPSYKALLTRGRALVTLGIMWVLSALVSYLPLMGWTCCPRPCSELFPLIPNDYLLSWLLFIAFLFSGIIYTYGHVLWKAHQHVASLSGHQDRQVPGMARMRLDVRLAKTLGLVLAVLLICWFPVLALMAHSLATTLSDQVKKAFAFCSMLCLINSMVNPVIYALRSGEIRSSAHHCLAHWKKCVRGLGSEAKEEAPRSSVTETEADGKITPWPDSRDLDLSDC
7.33

Which pKi is reported with human CB2 receptor (transfected human embryonic kidney 293 cells) (Homo sapiens) for this entry: CCCCCC(C)(C)c1cc(OC)c2c(c1)OC(C)(C)[C@@H]1CC[C@H](O)C[C@@H]21 ?
7.42

Record CCC[C@H](C)Cc1ccc2c(c1)OC(C)(C)[C@@H]1CC=C(C)C[C@@H]21 : what is its pKi with human CB2 receptor (transfected human embryonic kidney 293 cells) (Homo sapiens)?
7.61

human CB2 receptor (transfected human embryonic kidney 293 cells) (Homo sapiens) / pKi / CC[C@@H](C)Cc1cc(OC)c2c(c1)OC(C)(C)[C@@H]1CC=C(C)C[C@@H]21 : value?
7.88

* * *

Exercise: for every item that follows, state its recorded Fold selectivity for CB2 over CB1.
biological target: human CB2 receptor (transfected human embryonic kidney 293 cells) (Homo sapiens); construct: expressed in transfected cells; test: CB2 receptor binding assay, [3H]CP-55,940 displacement; settings: ratio of CB1 to CB2 affinity
Field format: number, assumed fold, no unit text.

Kindly state the measured Fold selectivity for CB2 over CB1 obtained for CCCCCC(C)(C)c1cc(OC)c2c(c1)OC(C)(C)[C@@H]1CC[C@@H](O)C[C@@H]21 [Compound 350] with human CB2 receptor (transfected human embryonic kidney 293 cells) (Homo sapiens).
33

Test system human CB2 receptor (transfected human embryonic kidney 293 cells) (Homo sapiens); read-out Fold selectivity for CB2 over CB1; what value for CCCCC(C)(C)c1cc(OC)c2c(c1)OC(C)(C)[C@@H]1CC[C@@H](O)C[C@@H]21 [Compound 299] ?
14

# returns recorded Fold selectivity for CB2 over CB1 (system: human CB2 receptor (transfected human embryonic kidney 293 cells) (Homo sapiens)) for CCC[C@H](C)Cc1ccc2c(c1)OC(C)(C)[C@@H]1CC=C(C)C[C@@H]21 [Compound 255]
174

Value wanted: Fold selectivity for CB2 over CB1 (human CB2 receptor (transfected human embryonic kidney 293 cells) (Homo sapiens)) of entry CC[C@H](C)Cc1ccc2c(c1)OC(C)(C)[C@@H]1CC=C(C)C[C@@H]21 [Compound 352]
213

// fetch human CB2 receptor (transfected human embryonic kidney 293 cells) (Homo sapiens) Fold selectivity for CB2 over CB1 for CCCCCC(C)(C)c1cc(OC)c2c(c1)OC(C)(C)[C@@H]1CC[C@H](O)C[C@@H]21 [Compound 349]
10

Value wanted: Fold selectivity for CB2 over CB1 (human CB2 receptor (transfected human embryonic kidney 293 cells) (Homo sapiens)) of entry CCCC(C)(C)c1ccc2c(c1)OC(C)(C)[C@@H]1CC[C@@H](O)C[C@@H]21 [Compound 310]
29

Lab request: please report Fold selectivity for CB2 over CB1 under test system human CB2 receptor (transfected human embryonic kidney 293 cells) (Homo sapiens) for CC[C@@H](C)Cc1cc(OC)c2c(c1)OC(C)(C)[C@@H]1CC=C(C)C[C@@H]21 [Compound 359]
219

API: value(readout=Fold selectivity for CB2 over CB1, system=human CB2 receptor (transfected human embryonic kidney 293 cells) (Homo sapiens)) for record CC[C@@H](C)Cc1ccc2c(c1)OC(C)(C)[C@@H]1CC=C(C)C[C@@H]21 [Compound 353]
48
